tested on: OVCAR-4 ovarian; experiment: NCI tumour cell line growth inhibition, 48 h
Observed Property: GI50

Exercise: API: value(readout=GI50, system=OVCAR-4 ovarian) for record Cc1nn(-c2ccccc2)c2nc3c(nc12)C1=NCCN1C(c1ccc(Cl)cc1)N3 (stereo unspecified)
Solution: 7.1 µM

Exercise: Consider next the molecule C=Cc1cc(OC)c2c(c1)c(=O)oc1c2cc(OC)c2c(O)ccc(C3OC(C)C(O)C(C)(O)C3O)c21 (stereo unspecified) in the same way.
Solution: 0.00215 µM

Exercise: Consider next the molecule COc1ccc(-c2nn(-c3cccc(NC(=O)c4cccc(C(F)(F)F)c4)c3)cc2-c2ccncc2)cc1Cl in the same way.
Solution: 6.24 µM

Exercise: Consider next the molecule Cc1[nH]nc2ccc3nc(-c4ccc5[nH]ncc5c4)c4c(c3c12)CCCC4 in the same way.
Solution: 2.12 µM

Exercise: Consider next the molecule S=C(c1ccc2c(c1)OCO2)N1CCN(c2cccc(Cl)c2)CC1 in the same way.
Solution: 7.45 µM

Exercise: Consider next the molecule Cc1c(-c2nnc(-c3ccc(F)cc3)o2)nnn1-c1ccnc2c(C(F)(F)F)cccc12 in the same way.
Solution: 21 µM
